# SUBJECT OF TEST: UniProt:P62942
# Sequence (P62942 whole entry, looked up): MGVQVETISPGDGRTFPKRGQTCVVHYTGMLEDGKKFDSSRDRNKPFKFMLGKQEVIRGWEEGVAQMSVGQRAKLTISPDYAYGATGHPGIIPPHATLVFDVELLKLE
# EXPERIMENTAL PROTOCOL: small-molecule binding to FKBP12 – biophysical, NMR detection (AID 608)
# RECORDED CONDITIONS: purified FKBP12
The source made the active and inactive calls. No rule for the calls is given here.
RECORDED ENDPOINT: Kd

// lookup Kd | system=UniProt:P62942 | key= COc1ccc(CCC(=O)N2CCOCC2)cc1
0.204 mM

Please answer likewise for CC1(C)CC2C1CC[C@]1(C)CCC3C(C(=O)O)CC(=O)O[C@@]32C1 (stereo partly specified)
> 4 mM (inactive)

Please answer likewise for O=C(NC1CCS(=O)(=O)C1)C1CCCCC1 (stereo unspecified)
> 4 mM (inactive)

Please answer likewise for OCc1cc(-c2cccs2)on1
> 4 mM (inactive)

Please answer likewise for NC(=O)N1CCc2ccccc21
> 4 mM (inactive)

Please answer likewise for CNC(=O)C(=O)Nc1ccc(C)c(C)c1
> 4 mM (inactive)

Please answer likewise for C=C1C(=O)O[C@@H]2C3OC3(C)CC/C=C(\C)CC[C@@H]12 (stereo partly specified)
> 4 mM (inactive)

Please answer likewise for O=C(CSc1ccnc(=O)[nH]1)NCc1ccco1
> 4 mM (inactive)

Please answer likewise for COc1cc(C(=S)N2CCOCC2)ccc1O
> 4 mM (inactive)

Please answer likewise for O=S(=O)(Cc1ccc(Cl)cc1)N1CCCC1
> 4 mM (inactive)

Please answer likewise for Cc1c(O)c(O)cc2c1CC=C1[C@@]2(C)CC[C@@]2(C)C3C[C@](C)(C(=O)O)CC[C@]3(C)CC[C@]12C (stereo partly specified)
> 4 mM (inactive)

Please answer likewise for Cc1ccc(/C=C2/NC(=S)NC2=O)s1
> 4 mM (inactive)

Please answer likewise for COC(=O)c1ccc(/C=C2/NC(=S)NC2=O)cc1
> 4 mM (inactive)

Please answer likewise for c1ccc(SCc2nc(-c3cccnc3)no2)cc1
> 4 mM (inactive)

Please answer likewise for CC(=O)O[C@H]1CC[C@@]2(C)C(C[C@@H](OC(C)=O)[C@@]3(C)C4=CC(=O)O[C@@H](c5ccoc5)[C@]4(C)CCC23)C1(C)C (stereo partly specified)
> 4 mM (inactive)

Please answer likewise for COc1ccc2c(c1OC)C(=O)N(c1ncn[nH]1)C2
> 4 mM (inactive)

Please answer likewise for O=c1ccc2c([nH]1)CCCC2
> 4 mM (inactive)

Please answer likewise for O=C(Nc1nnc(-c2ccco2)o1)C1=COCCO1
> 4 mM (inactive)

Please answer likewise for COc1cccc(N2CCN(C(=O)c3cccnc3)CC2)c1
> 4 mM (inactive)

Please answer likewise for CCOC(=O)C1CN(C)CCN1C (stereo unspecified)
> 4 mM (inactive)

Please answer likewise for Cc1cc(SCC(=O)c2ccccc2)nc(=O)[nH]1
> 4 mM (inactive)

Please answer likewise for CN(C)/C=N/S(=O)(=O)c1ccccc1
> 4 mM (inactive)

Please answer likewise for CC(C)=CC1C(C(=O)O)C1(C)C (stereo unspecified)
> 4 mM (inactive)

Please answer likewise for CN1C(=O)Cc2cc(S(N)(=O)=O)ccc21
> 4 mM (inactive)

Please answer likewise for O=C1NC(=S)NC(=O)C1=Cc1ccncc1
> 4 mM (inactive)

Values were extracted from PubChem BioAssay AID608.
